Test system: blackgrass (Alopecurus myosuroides)
Test: Test A1 postemergence, blackgrass
Type: in vivo
Settings: Postemergence, 125 g ai/ha; 0 to 100 scale (0 no effect, 100 complete control)
Readout: Plant response rating, Blackgrass
Just the number, please, no unit attached.

# Compound, Experimental system, Plant response rating, Blackgrass
measured = [
    ("Cc1cc(C)c(-n2nccc(C)c2=O)cc1NS(=O)(=O)C(F)(F)F", "blackgrass (Alopecurus myosuroides)", 0),
]

Entry Cc1cc(F)c(C2=NOC3CCCC23)cc1NS(=O)(=O)C(F)(F)F (stereo not shown) has what Plant response rating, Blackgrass?
0

What would you report for COCC1CC(c2cc(NS(=O)(=O)C(F)(F)F)c(C)cc2C)=NO1 (stereo not shown) ?
10

What would you report for Cc1c(C(=O)N2CCC(F)(F)CC2)cc(N(COC(=O)C(C)(C)C)S(=O)(=O)C(F)(F)F)c(C)c1C ?
0
